TEST_DETAILS: C. albicans growth with fluconazole, confirmation, fluorescence, retest (AID 2467)
Type: functional, cell-based
The source made the active and inactive calls. No stated cut-off is given here; in the data, actives have a measured EC50 and inactives only a lower limit.

COMPOUND: O=C(N/N=C/c1ccccc1O)c1cccc(C(F)(F)F)c1
EC50: 1.39 µM (active)

COMPOUND: Nc1c2c(nc3sc4c(c13)CCCCC4)CCCCC2
EC50: 3.83 µM (active)

COMPOUND: CN(C)c1ccc(-c2n(C)c3ccccc3[n+]2C)cc1
EC50: 2.18 µM (active)

COMPOUND: Sc1nnc(-c2cccs2)n1/N=C/c1cccs1
EC50: 1.93 µM (active)

COMPOUND: Cc1cccc(Cc2cnc(N3C(=N)SC(C)C3=O)s2)c1 (centres undefined)
EC50: 1.91 µM (active)

COMPOUND: Cc1cc(C)nc(NS(=O)(=O)c2ccc(NC(=O)COc3ccccc3)cc2)n1
EC50: > 38 µM (not active)

COMPOUND: O=S(=O)(c1ccc(Cl)s1)N1CCCc2cccc(O)c21
EC50: > 38 µM (not active)

COMPOUND: CC(C)C(Sc1nc(-c2ccccc2)cc(-c2ccccc2)c1C#N)C(=O)O (centres undefined)
EC50: 2.61 µM (active)

COMPOUND: CCN(c1ccccc1)S(=O)(=O)c1ccc(C(=O)Nc2nnc(C3CC3)o2)cc1
EC50: 2.19 µM (active)
